protocol-summary: Stability in aqueous solution (percent retention)
Assay type: physicochemical
study-conditions: aqueous concentrate, 155 mg/ml, 5° C., 48 hrs
Counter-ions that a name gives are not always drawn.

compound | scale-unit | remaining at 48 h
CC1(C)S[C@@H]2[C@H](NC(=O)[C@@H](c3ccc(O)cc3)N(C3CCCCO3)C3CCCCO3)C(=O)N2[C@H]1C(=O)O (relative stereo) [Compound II, sodium salt] | % | 100

* * *

protocol-summary: Stability in aqueous solution (percent retention)
Assay type: physicochemical
study-conditions: 5% dextrose in water, 2.10 mg/ml, RT, 24 hrs
Where a name gives a salt, the structure may show the parent alone.

compound | scale-unit | remaining at 24 h
CC1(C)S[C@@H]2[C@H](NC(=O)[C@@H](c3ccc(O)cc3)N(C3CCCCO3)C3CCCCO3)C(=O)N2[C@H]1C(=O)O (relative stereo) [Compound II, sodium salt] | % | 89
